system: mammalian MOM; assay: Ceramide-induced permeabilization of mammalian MOM; type: biochemical; details: C16-ceramide; read-out: IC50 for inhibition of C16-ceramide-induced permeabilization of mammalian MOM
reported property: IC50 (µM)

P: CC(C)NCC(O)COc1cccc2ccccc12 (centres unmarked)
Q: CCCCOc1cc(C(=O)NCCN(CC)CC)c2ccccc2n1
Query :: Would you kindly point out which of P and Q has the smaller IC50 figure? # respond with the chosen item's label
Result :: Q
